Consider the following molecules; for each one, report its Ordinary stability Mean.
Experiment: Ordinary stability of QC samples (room temperature for 8 h)
Type: physicochemical, rat
Conditions: plasma QC, spiked 250 ng/mL, room temperature 8 h

Give Ordinary stability Mean for `O=c1c(-c2ccc(O)cc2)coc2cc(O[C@@H]3O[C@H](CO)[C@@H](O)[C@H](O)[C@H]3O)cc(O)c12`
84.19%

Provide only the value of recorded Ordinary stability Mean for COC(=O)c1ccc(O)cn1 [Analyte 2, 5-hydroxypicolinic acid methyl ester]
86.35%

Provide only the value of recorded Ordinary stability Mean for `O=Cc1ccc2n1C[C@]1(C[C@H](O)[C@@H](CO)O1)OC2`
84.19%

Identify Ordinary stability Mean associated with the molecule `COc1ccc(-c2coc3cc(O[C@@H]4O[C@H](CO)[C@@H](O)[C@H](O)[C@H]4O)ccc3c2=O)cc1`
82.57%

Output Ordinary stability Mean of `COc1ccccc1-c1cc(=O)c2c(O)cc(OC)c(OC)c2o1`
92.98%

Identify Ordinary stability Mean associated with the molecule `O=C(O)c1ccccc1O`
108.42%

Check the records and state Ordinary stability Mean for `COc1cc(O[C@@H]2O[C@H](CO)[C@@H](O)[C@H](O)[C@H]2O)cc(OC)c1OC`
104.48%

Assign Ordinary stability Mean to the following record: O=Cc1ccc2n1C[C@@]1(C[C@H](O)[C@@H](CO)O1)OC2 [Analyte 4, 9-epi-acortatarin A]
116.00%

State, in one line, measured Ordinary stability Mean of `O=C1C[C@@H](c2ccc(O)cc2)Oc2cc(O)cc(O)c21`
92.68%
